Tested on: HTT mRNA
Test: Splicing RT-qPCR assay, HTT canonical (CJ) and alternative (AJ) junction mRNA
Type: cell-based, human
Conditions: Homo sapiens, A673 or K562 cells, 24 hours compound treatment, read-out: HTT AJ (AC50, increase in alternative junction mRNA)
Structures can show the parent of a compound that is named as a salt.
readout-name: AC50

Previously resolved entries follow.
# molecule, AC50
rows = [
    ("COCCn1cc2c(N3CCNCC3)ccc(C(=O)Nc3cc(F)c4nc(C)cn4c3)c2n1 [Compound 292, hydrochloride]", "1 to 10 µM"),
    ("Cc1cc(NC(=O)c2ccc(N3CCNCC3)c3cn(C)nc23)c(O)c2cn(C)nc12", "> 10 µM"),
    ("Cc1cn2cc(NC(=O)c3ccc(N4CC[C@H](NC5CC(O)C5)C4)c4cn(C)nc34)cc(F)c2n1 (stereo partly shown)", "> 10 µM"),
]

Request: Retrieve AC50 measured for `Cc1cn2cc(NC(=O)c3ccc(N4CCNCC4)c4cn(CCF)nc34)cc(F)c2n1` and print it.
Result: 1 to 10 µM

---

System: HTT mRNA
Assay: Splicing RT-qPCR assay, HTT canonical (CJ) and alternative (AJ) junction mRNA
Assay type: cell-based, human
Conditions: Homo sapiens, A673 or K562 cells, 24 hours compound treatment, read-out: HTT AJ (AC50, increase in alternative junction mRNA)
Structures can show the parent of a compound that is named as a salt.
readout-name: AC50

# molecule, endpoint-value
rows = [
    ("Cc1cc2nc(NC(=O)c3ccc(N4CCNCC4)c4cn(C)nc34)cc(C)n2n1", "> 10 µM"),
    ("Cc1cn2cc(NC(=O)c3ccc(N4CCC(N5CCCC5)C4)c4cn(C)nc34)cc(F)c2n1 (stereo not drawn)", "0.1 to 1 µM"),
    ("COCCOc1nc2c(C(=O)Nc3cc(F)c4nc(C)cn4c3)ccc(N3CCNCC3)c2o1", "> 10 µM"),
    ("CCn1cc2c(N3CC4(CCCN4)C3)ccc(C(=O)Nc3cc(F)c4nc(C)cn4c3)c2n1", "> 10 µM"),
    ("Cc1cn2cc(NC(=O)c3ccc(N4CCNCC4)c4nn(C)nc34)cc(F)c2n1", "0.1 to 1 µM"),
    ("Cc1cn2cc(NC(=O)c3ccc(N4CC[C@@H](NC5CC5(C)C)C4)c4cn(C)nc34)cc(F)c2n1 (stereo partly drawn)", "> 10 µM"),
    ("CCn1cc2c(N3CCC4(CC3)CCN4C)ccc(C(=O)Nc3cc(F)c4nc(C)cn4c3)c2n1 [Compound 401, 2,2,2-trifluoroacetate]", "0.1 to 1 µM"),
    ("Cc1cn2nc(NC(=O)c3ccc(N4CCNCC4)c4cn(C)nc34)cc(C)c2n1 [Compound 322, hydrochloride]", "> 10 µM"),
]

For the 2 molecules below, give their AC50 values.
1. C=CCn1cc2c(N3CCNCC3)ccc(C(=O)Nc3cc(F)c4nc(C)cn4c3)c2n1
2. Cc1cn2cc(NC(=O)c3ccc(N4CC[C@@H](NC56CC(C5)C6)C4)c4cn(C)nc34)cc(F)c2n1

Result:
1 to 10 µM
1 to 10 µM

Field: AC50. Fill in for each record below.
1. CCn1cc2c(N3C[C@@H](C)N[C@@H](C(C)C)C3)ccc(C(=O)Nc3cc(F)c4nc(C)cn4c3)c2n1
2. Cn1cc2cc(NC(=O)c3ccc(N4CCNCC4)c4cn(C)nc34)ccc2n1 [Compound 324, hydrochloride]
3. CCC1CN(c2ccc(C(=O)Nc3cc(F)c4nc(C)cn4c3)c3nn(C)cc23)CCN1 (stereo not drawn)
4. CN[C@@H]1CCN(c2ccc(C(=O)Nc3cn4cc(C)nc4c(OC4CC4)n3)c3nn(C)cc23)C1
5. Cc1cn2cc(NC(=O)c3ccc(C4CCN(C)CC4)c4cc(C)oc34)cc(F)c2n1

Result:
1. > 10 µM
2. 1 to 10 µM
3. 0.1 to 1 µM
4. 1 to 10 µM
5. 1 to 10 µM
